Target: human muscarinic M1 receptor (Homo sapiens, UniProt P11229)
Sequence (P11229 whole entry): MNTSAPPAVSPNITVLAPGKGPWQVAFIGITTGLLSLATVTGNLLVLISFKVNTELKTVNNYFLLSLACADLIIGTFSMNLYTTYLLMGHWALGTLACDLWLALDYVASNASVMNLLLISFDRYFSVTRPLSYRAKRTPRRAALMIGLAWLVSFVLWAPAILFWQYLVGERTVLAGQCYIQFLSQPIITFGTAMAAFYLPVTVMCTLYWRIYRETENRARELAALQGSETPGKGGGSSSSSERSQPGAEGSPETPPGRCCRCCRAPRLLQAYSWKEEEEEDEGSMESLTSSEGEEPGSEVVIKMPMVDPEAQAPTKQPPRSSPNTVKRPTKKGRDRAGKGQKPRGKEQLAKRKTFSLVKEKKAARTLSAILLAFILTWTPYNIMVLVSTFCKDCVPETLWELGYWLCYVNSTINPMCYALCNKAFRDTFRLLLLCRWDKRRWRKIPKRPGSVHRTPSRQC
Test: Alphascreen Surefire phospho-ERK1/2 functional assay, M1
Format: cell-based
Conditions: CHO, read-out: % Emax cf. ACh (M1), CHO cells stably expressing human M1; Emax relative to ACh
Rule: Emax under 60% gives 0, otherwise 1.

[
  {
    "Compound": "CNC(=O)N1CCC[C@H]1C1CCN(C2CCCN(c3nc(C)no3)CC2)CC1 (single isomer, unassigned) [10-12 Isomer 1]",
    "Class label": 0
  },
  {
    "Compound": "O=C1CC2(CCN(C3CC4CCC(C3)N4c3nc(C(F)(F)F)no3)CC2)CN1 (single isomer, unassigned) [12-3 Isomer 1]",
    "Class label": 1
  },
  {
    "Compound": "CCC1(NC(=O)C2CCN(C3CC4CCC(C3)N4c3nc(C)no3)CC2)CCC1 (single isomer, unassigned) [12-8 Isomer 2]",
    "Class label": 1
  },
  {
    "Compound": "CC[C@H]1CCC(=O)N1C1CCN(C2CCCN(c3nc(C)no3)CC2)CC1 (single isomer, unassigned) [10-9 Isomer 2]",
    "Class label": 0
  },
  {
    "Compound": "Cc1noc(N2CC3CC(N4CCC5(CC4)CNC(=O)C5)CC2C3)n1 (single isomer, unassigned) [11-2 Isomer 2]",
    "Class label": 1
  },
  {
    "Compound": "Cc1noc(N2C3CCC2CC(N2CCC(n4cccn4)CC2)C3)n1 (single isomer, unassigned) [6-1 Isomer 1]",
    "Class label": 0
  },
  {
    "Compound": "CCc1noc(N2C3CCC2CC(N2CCC4(CC2)CNC(=O)C4)C3)n1 (single isomer, unassigned) [6-3 Isomer 2]",
    "Class label": 0
  },
  {
    "Compound": "CCN(C(C)=O)C1CCN(C2CCCN(c3nc(C)no3)CC2)CC1 (racemic) [10-11 Racemic mixture]",
    "Class label": 0
  },
  {
    "Compound": "Cc1noc(N2C3CCC2CC(N2CCC(C(=O)NC4(C)CCC4)CC2)C3)n1 (single isomer, unassigned) [6-5 Isomer 2]",
    "Class label": 1
  },
  {
    "Compound": "Cc1noc(N2CCC(N3CCC(n4cccn4)CC3)CC2)n1",
    "Class label": 0
  },
  {
    "Compound": "Cc1noc(N2C3CCCC2CC(N2CCC(C(=O)NC4(C)CCC4)CC2)C3)n1 (single isomer, unassigned) [8-4 Isomer 1]",
    "Class label": 1
  },
  {
    "Compound": "Cc1noc(N2C3CCC2CC(N2CCC(C(=O)NCC4(C)CCC4)CC2)C3)n1 (single isomer, unassigned) [12-12 Isomer 2]",
    "Class label": 1
  },
  {
    "Compound": "Cc1noc(N2CCCC(N3CCC(n4cccn4)CC3)CC2)n1 (single isomer, unassigned) [10-1 Isomer 1]",
    "Class label": 0
  },
  {
    "Compound": "Cc1noc(N2CC3(CCC(N4CCC(n5cccn5)CC4)C3)C2)n1 (single isomer, unassigned) [3-1 Isomer 2]",
    "Class label": 0
  }
]

----------
Molecular target: human muscarinic M3 receptor (Homo sapiens)
Construct: expressed in transfected cells
Sequence (P20309 whole entry): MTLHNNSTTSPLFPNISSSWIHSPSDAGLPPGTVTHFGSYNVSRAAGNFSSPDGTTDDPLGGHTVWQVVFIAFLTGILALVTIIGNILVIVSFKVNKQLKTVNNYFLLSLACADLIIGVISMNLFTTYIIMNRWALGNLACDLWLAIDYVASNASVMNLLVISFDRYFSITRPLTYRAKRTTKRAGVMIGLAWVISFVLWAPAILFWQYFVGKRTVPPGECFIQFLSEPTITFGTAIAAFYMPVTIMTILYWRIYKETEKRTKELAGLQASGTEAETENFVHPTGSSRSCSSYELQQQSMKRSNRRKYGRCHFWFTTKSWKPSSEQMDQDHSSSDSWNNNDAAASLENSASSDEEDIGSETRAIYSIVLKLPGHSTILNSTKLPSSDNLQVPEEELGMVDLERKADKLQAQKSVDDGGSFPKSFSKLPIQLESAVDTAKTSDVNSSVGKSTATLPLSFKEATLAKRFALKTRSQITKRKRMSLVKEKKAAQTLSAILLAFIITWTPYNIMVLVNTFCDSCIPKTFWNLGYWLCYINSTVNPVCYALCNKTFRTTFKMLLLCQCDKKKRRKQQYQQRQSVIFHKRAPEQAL
Assay: Alphascreen Surefire phospho-ERK1/2 functional assay, M3
Assay type: cell-based
Conditions: CHO, read-out: % Emax cf. ACh (M3)
// returns False unless Emax is strictly below 3%, in which case True

[
  {
    "Molecule": "Cc1noc(N2CCCC(N3CCC4(CC3)C(=O)Nc3ccccc34)CC2)n1 (single isomer, unassigned) [10-6 Isomer 1]",
    "Class label": "False"
  },
  {
    "Molecule": "CC1(NC(=O)C2CCN(C3CC4CCC(C3)N4c3nc(C(F)(F)F)no3)CC2)CCC1 (single isomer, unassigned) [12-14 Isomer 2]",
    "Class label": "False"
  },
  {
    "Molecule": "CCc1noc(N2C3CCC2CC(N2CCC4(CC2)CNC(=O)C4)C3)n1 (single isomer, unassigned) [6-3 Isomer 2]",
    "Class label": "True"
  },
  {
    "Molecule": "Cc1noc(N2C3CCCC2CC(N2CCC4(CC2)CNC(=O)O4)C3)n1 (single isomer, unassigned) [8-3 Isomer 1]",
    "Class label": "True"
  },
  {
    "Molecule": "Cc1noc(N2C3CCC2CC(N2CCC4(CC2)CNC(=O)O4)C3)n1 (single isomer, unassigned) [6-4 Isomer 2]",
    "Class label": "False"
  },
  {
    "Molecule": "Cc1noc(N2C3COCC2CC(N2CCC(n4cccn4)CC2)C3)n1 (single isomer, unassigned) [9-1 Isomer 1]",
    "Class label": "True"
  },
  {
    "Molecule": "Cc1noc(N2C3CCC2CC(N2CCC(n4cccn4)CC2)C3)n1 (single isomer, unassigned) [6-1 Isomer 1]",
    "Class label": "True"
  },
  {
    "Molecule": "CCN(CC)C(=O)[C@H]1[C@@H]2CN(C3CC4COCC(C3)N4c3nc(C)no3)C[C@@H]21 (single isomer, unassigned) [9-2 Isomer 2]",
    "Class label": "False"
  },
  {
    "Molecule": "Cc1noc(N2C3CCC2CC(N2CCC(C(=O)NC4(C)CCC4)CC2)C3)n1 (single isomer, unassigned) [6-5 Isomer 2]",
    "Class label": "False"
  },
  {
    "Molecule": "O=C1CC2(CCN(C3CC4CCC(C3)N4c3nc(C(F)(F)F)no3)CC2)CN1 (single isomer, unassigned) [12-3 Isomer 1]",
    "Class label": "False"
  }
]
